system: T47D pAKT (S473), PI3Kα H1047R mutation present; assay: HTRF pAKT-T47D; details: read-out: T47D pAKT IC50; T47D.1 cells, pAKT (S473) HTRF, 1 hour;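 also: assay medium was RPMI with 10% FBS and 0.2 units/ml bovine insulin, without phenol red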
endpoint: IC50

[[record]]
molecule = "Cc1c(C(NC(=O)Nc2cnc(N[C@@H](C)CO)nc2)C(F)(F)F)oc2c(F)cc(F)cc12 (single isomer, unassigned) [Compound 195]"
system = "T47D pAKT (S473), PI3Kα H1047R mutation present"
endpoint = "IC50"
observed = "> 5 µM"

[[record]]
molecule = "Cc1c(C(NC(=O)Nc2cnc(N3CC(O)C3)nc2)C(F)(F)F)oc2c(F)cc(Cl)cc12 (racemic) [Compound 157]"
system = "T47D pAKT (S473), PI3Kα H1047R mutation present"
endpoint = "IC50"
observed = "< 1 µM"

[[record]]
molecule = "Cc1c(C(NC(=O)Nc2cnc(N[C@H](C)CO)nc2)C(F)(F)F)oc2c(F)cc(F)cc12 (single isomer, unassigned) [Compound 188]"
system = "T47D pAKT (S473), PI3Kα H1047R mutation present"
endpoint = "IC50"
observed = "< 1 µM"

[[record]]
molecule = "Cc1c(C(NC(=O)Nc2cnc(N)nc2)C(F)(F)F)oc2c(Br)cc(F)cc12 (single isomer, unassigned)"
system = "T47D pAKT (S473), PI3Kα H1047R mutation present"
endpoint = "IC50"
observed = "< 1 µM"

[[record]]
molecule = "Cc1c(C(NC(=O)Nc2cnc(N3CCNC(=O)C3)nc2)C(F)(F)F)oc2c(F)cc(F)cc12 (single isomer, unassigned) [Compound 189]"
system = "T47D pAKT (S473), PI3Kα H1047R mutation present"
endpoint = "IC50"
observed = "< 1 µM"

[[record]]
molecule = "Cc1c(C(NC(=O)Nc2cnc(N)nc2)C(F)(F)F)oc2c(Cl)cc(F)cc12 (racemic) [Compound 177]"
system = "T47D pAKT (S473), PI3Kα H1047R mutation present"
endpoint = "IC50"
observed = "> 5 µM"


----------
target: PI3Kα H1047R protein (p110-α H1047R complexed with truncated p85-α) (Homo sapiens, UniProt P42336, H1047R); construct: The protein contained a full-length p110-α subunit harboring the H1047R mutation; test: Surface Plasmon Resonance (SPR) binding, wortmannin-blocked protein; conditions: Biacore 8K, ATP site blocked with 1 μM wortmannin, 25° C.
Sequence (P42336 whole entry H1047R, the tested form may be a part): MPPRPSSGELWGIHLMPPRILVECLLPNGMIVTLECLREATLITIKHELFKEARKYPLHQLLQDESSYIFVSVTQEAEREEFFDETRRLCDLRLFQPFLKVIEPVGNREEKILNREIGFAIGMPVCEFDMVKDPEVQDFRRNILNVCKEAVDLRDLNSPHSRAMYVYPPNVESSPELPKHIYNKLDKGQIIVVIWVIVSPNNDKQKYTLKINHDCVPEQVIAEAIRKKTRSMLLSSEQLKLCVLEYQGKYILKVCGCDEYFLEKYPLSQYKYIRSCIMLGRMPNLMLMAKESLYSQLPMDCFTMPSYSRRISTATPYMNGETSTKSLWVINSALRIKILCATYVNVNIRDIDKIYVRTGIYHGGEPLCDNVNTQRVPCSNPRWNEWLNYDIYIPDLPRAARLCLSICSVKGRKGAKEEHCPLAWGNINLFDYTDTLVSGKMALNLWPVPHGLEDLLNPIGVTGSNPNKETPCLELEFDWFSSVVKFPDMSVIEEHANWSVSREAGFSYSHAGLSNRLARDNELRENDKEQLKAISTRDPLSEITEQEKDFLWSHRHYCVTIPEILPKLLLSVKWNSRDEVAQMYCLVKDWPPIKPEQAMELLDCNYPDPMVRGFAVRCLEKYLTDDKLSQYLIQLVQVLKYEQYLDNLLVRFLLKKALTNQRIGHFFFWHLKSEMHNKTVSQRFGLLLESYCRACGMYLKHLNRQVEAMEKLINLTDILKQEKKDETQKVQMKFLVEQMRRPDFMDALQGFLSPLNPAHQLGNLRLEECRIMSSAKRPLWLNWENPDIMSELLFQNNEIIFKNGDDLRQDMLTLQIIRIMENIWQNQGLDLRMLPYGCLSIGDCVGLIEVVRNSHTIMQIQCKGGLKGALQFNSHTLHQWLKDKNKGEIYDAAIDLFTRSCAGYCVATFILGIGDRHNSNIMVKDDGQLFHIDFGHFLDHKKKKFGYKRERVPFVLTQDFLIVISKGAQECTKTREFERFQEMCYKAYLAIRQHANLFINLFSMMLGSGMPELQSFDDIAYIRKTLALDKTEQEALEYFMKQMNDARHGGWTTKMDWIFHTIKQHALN
Sequence (P27986 322-694 partner limits assumed): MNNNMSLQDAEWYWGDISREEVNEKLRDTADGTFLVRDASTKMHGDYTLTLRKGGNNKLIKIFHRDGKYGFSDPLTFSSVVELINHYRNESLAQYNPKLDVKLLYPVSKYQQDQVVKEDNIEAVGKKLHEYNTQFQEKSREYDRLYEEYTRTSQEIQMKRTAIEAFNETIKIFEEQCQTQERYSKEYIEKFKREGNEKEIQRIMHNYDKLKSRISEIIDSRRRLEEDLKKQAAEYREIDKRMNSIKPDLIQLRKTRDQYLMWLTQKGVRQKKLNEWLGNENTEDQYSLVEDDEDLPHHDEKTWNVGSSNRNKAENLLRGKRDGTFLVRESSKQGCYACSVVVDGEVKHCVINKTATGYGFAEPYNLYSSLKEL
pKd: −log10 of the molar value.
endpoint: pKd

[[record]]
compound = "Cc1c([C@@H](NC(=O)Nc2cnc(C(=O)N(C)C)nc2)C(C)C)oc2ccc(F)cc12"
endpoint = "pKd"
observed = "6.60 to 7.00"

[[record]]
compound = "CNC(=O)c1cncc(NC(=O)N[C@H](c2oc3ccc(F)cc3c2C)C(C)C)c1"
endpoint = "pKd"
observed = "6.60 to 7.00"

[[record]]
compound = "Cc1c([C@@H](NC(=O)N[C@H]2CC[C@H](O)CC2)C(C)C)oc2ccc(F)cc12"
endpoint = "pKd"
observed = "6.30 to 6.60"

[[record]]
compound = "Cc1c([C@@H](NC(=O)Nc2cccc(S(C)(=N)=O)c2)C(C)C)oc2ccc(F)cc12 (stereo partly shown) [Compound 28]"
endpoint = "pKd"
observed = "6.60 to 7.00"

[[record]]
compound = "Cc1c([C@@H](NC(=O)N[C@@H]2CCC[C@@H](C(N)=O)C2)C(C)C)oc2ccc(F)cc12 (single isomer, unassigned)"
endpoint = "pKd"
observed = "6.60 to 7.00"

[[record]]
compound = "Cc1c([C@@H](NC(=O)Nc2cccc(S(N)(=O)=O)c2)C(C)C)oc2ccc(F)cc12"
endpoint = "pKd"
observed = "6.30 to 6.60"

[[record]]
compound = "Cc1c([C@@H](NC(=O)Nc2cncc(C#N)c2)C2CC2)oc2ccc(F)cc12"
endpoint = "pKd"
observed = "≤ 6.30"

[[record]]
compound = "Cc1c([C@@H](NC(=O)Nc2cccc(C(N)=O)c2)C(C)C)oc2c(F)cc(F)cc12"
endpoint = "pKd"
observed = "> 7.00"

[[record]]
compound = "Cc1c([C@@H](NC(=O)N[C@H]2CC[C@H](O)CC2)C(C)C)oc2cccc(F)c12"
endpoint = "pKd"
observed = "≤ 6.30"

[[record]]
compound = "Cc1c([C@@H](NC(=O)Nc2cncc(S(C)(=O)=O)c2)C(C)C)oc2ccc(F)cc12"
endpoint = "pKd"
observed = "> 7.00"

[[record]]
compound = "Cc1c([C@@H](NC(=O)N[C@@H]2CCCS(=O)(=O)C2)C(C)C)oc2ccc(F)cc12"
endpoint = "pKd"
observed = "6.60 to 7.00"

[[record]]
compound = "Cc1c([C@@H](NC(=O)Nc2ccnc(C(N)=O)c2)C(C)C)oc2ccc(F)cc12"
endpoint = "pKd"
observed = "6.30 to 6.60"

[[record]]
compound = "Cc1c([C@@H](NC(=O)Nc2cn[nH]c2)C(C)C)oc2ccc(F)cc12"
endpoint = "pKd"
observed = "6.60 to 7.00"

[[record]]
compound = "COC(=O)N1CCC(NC(=O)NC(c2oc3ccc(F)cc3c2C)C(C)C)CC1 (single isomer, unassigned)"
endpoint = "pKd"
observed = "≤ 6.30"

[[record]]
compound = "Cc1c([C@@H](NC(=O)Nc2cccnc2)C(C)C)oc2ccc(F)cc12"
endpoint = "pKd"
observed = "6.30 to 6.60"

[[record]]
compound = "Cc1c([C@@H](NC(=O)Nc2cncc(C(=O)N3CCNCC3)c2)C(C)C)oc2ccc(F)cc12"
endpoint = "pKd"
observed = "6.60 to 7.00"


----------
Target: PI3Kα H1047R protein (p110-α H1047R complexed with truncated p85-α) (Homo sapiens, UniProt P42336, H1047R)
Construct: The protein contained a full-length p110-α subunit harboring the H1047R mutation
Assay: Surface Plasmon Resonance (SPR) binding, wortmannin-blocked protein
Conditions: Biacore 8K, ATP site blocked with 1 μM wortmannin, 25° C.
Procedure: Surface Plasmon Resonance (SPR) SPR experiments were performed on a Biacore 8K instrument. A biotinylated recombinant PI3Kα H1047R protein was used in this study. […] Compound binding affinities were measured in the multi-cycle kinetics mode, at 90 μL/min flow rate with 90 seconds association time and 240 seconds dissociation time. […]
pKd: −log10 of the molar value.
Quick reference for pKd among some molecules
endpoint: pKd

[[record]]
molecule = "Cc1c([C@@H](NC(=O)Nc2cccc(S(C)(=N)=O)c2)C(C)C)oc2ccc(F)cc12 (single isomer, unassigned) [Compound 30]"
observed = "6.60 to 7.00"

[[record]]
molecule = "Cc1c([C@@H](NC(=O)Nc2ccc(C(N)=O)cc2)C(C)C)oc2ccc(F)cc12 (single isomer, unassigned) [Compound 21]"
observed = "6.60 to 7.00"

[[record]]
molecule = "Cc1c([C@@H](NC(=O)Nc2cncc(C(=O)O)c2)C(C)C)oc2ccc(F)cc12 [Compound 62]"
observed = "> 7.00"

[[record]]
molecule = "CNC(=O)c1cccc(NC(=O)N[C@H](c2oc3ccc(F)cc3c2C)C(C)C)c1 [Compound 23]"
observed = "6.30 to 6.60"

[[record]]
molecule = "Cc1c([C@H](C)NC(=O)Nc2cccc(C(N)=O)c2)oc2ccc(F)cc12 [Compound 3]"
observed = "≤ 6.30"

[[record]]
molecule = "Cc1c([C@@H](NC(=O)Nc2ccc(C(N)=O)nc2)C(C)C)oc2ccc(F)cc12 [Compound 41]"
observed = "> 7.00"

[[record]]
molecule = "Cc1c([C@@H](NC(=O)Nc2cccc(S(C)(=N)=O)c2)C(C)C)oc2ccc(F)cc12 (single isomer, unassigned) [Compound 29]"
observed = "6.60 to 7.00"

[[record]]
molecule = "Cc1c([C@@H](NC(=O)Nc2cncc(C(N)=O)c2)C2CC2)oc2ccc(F)cc12 [Compound 45]"
observed = "6.60 to 7.00"

[[record]]
molecule = "Cc1c([C@@H](NC(=O)Nc2ccc(C(=O)N(C)C)nc2)C(C)C)oc2ccc(F)cc12 [Compound 65]"
observed = "6.60 to 7.00"

[[record]]
molecule = "CCS(=O)(=O)c1ccc(NC(=O)N[C@H](C)c2oc3ccc(F)cc3c2C)cc1 [Compound 13]"
observed = "≤ 6.30"

[[record]]
molecule = "Cc1c([C@@H](NC(=O)Nc2ccc3c(c2)CNC3=O)C(C)C)oc2ccc(F)cc12 [Compound 33]"
observed = "> 7.00"

[[record]]
molecule = "Cc1c([C@@H](NC(=O)Nc2ccc(S(N)(=O)=O)nc2)C2CC2)oc2ccc(F)cc12 [Compound 48]"
observed = "6.60 to 7.00"

[[record]]
molecule = "CNS(=O)(=O)c1ccc(NC(=O)NC(C)c2oc3ccc(F)cc3c2C)cc1 (single isomer, unassigned) [Compound 14]"
observed = "≤ 6.30"

[[record]]
molecule = "Cc1c([C@@H](C)NC(=O)Nc2ccc(S(N)(=O)=O)cc2)oc2ccc(F)cc12 [Compound 12]"
observed = "≤ 6.30"

[[record]]
molecule = "Cc1c([C@@H](NC(=O)Nc2cnc(N)nc2)C(C)C)oc2ccc(F)cc12 [Compound 39]"
observed = "> 7.00"

[[record]]
molecule = "Cc1c([C@@H](NC(=O)Nc2ccc(N3CCC3)nc2)C(C)C)oc2ccc(F)cc12 [Compound 71]"
observed = "> 7.00"

[[record]]
molecule = "Cc1c([C@@H](NC(=O)Nc2ccc3c(c2)C(=O)NC3)C(C)C)oc2ccc(F)cc12 [Compound 34]"
observed = "> 7.00"

[[record]]
molecule = "Cc1c([C@@H](NC(=O)Nc2ccc(N)nc2)C(C)C)oc2ccc(F)cc12 [Compound 38]"
observed = "6.60 to 7.00"

[[record]]
molecule = "Cc1c(C(NC(=O)Nc2cccc(C(N)=O)c2)C(C)C)oc2ccc(F)c(F)c12 (racemic) [Compound 54]"
observed = "6.60 to 7.00"

[[record]]
molecule = "Cc1c([C@@H](NC(=O)Nc2cnc(N3CC(F)C3)nc2)C(C)C)oc2ccc(F)cc12 [Compound 73]"
observed = "> 7.00"

[[record]]
molecule = "Cc1c([C@@H](NC(=O)Nc2cnc(N)nc2)C(C)C)oc2ccc(F)cc12 [Compound 66]"
observed = "> 7.00"

